B1: KLHL13 (parent)
chain: GVSKVGLRKIIDFIYTAKLSLNMD

# Variants of: B1
# Protocol: protein stability index of a GFP-peptide fusion (GPS, HEK-293T) (PSI 1-6); higher = more stable;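 further: lentivirally expressed fusions sorted by FACS into six bins by GFP to DsRed ratio, PSI derived from sequencing read proportions per bin multiplied by bin number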
# Assay Setup: c terminus: a fixed tail appended
Quantity Measured: protein stability index
Give bare numbers.

These solved cases illustrate the format of a correct answer.
[
  {
    "Sequence Change": "I14E",
    "protein stability index": 2.31
  },
  {
    "Sequence Change": "F13K",
    "protein stability index": 1.66
  },
  {
    "Sequence Change": "I14W",
    "protein stability index": 3.72
  },
  {
    "Sequence Change": "V2F",
    "protein stability index": 1.65
  },
  {
    "Sequence Change": "K18L",
    "protein stability index": 1.76
  },
  {
    "Sequence Change": "V2G",
    "protein stability index": 3.41
  }
]

Hello, I would appreciate it if you could give protein stability index for each entry below.
1. V5W
2. T16V
3. L7C
4. I14M
5. A17K

1. 3.14
2. 1.81
3. 3.38
4. 3.04
5. 2.73
